IC95: recorded values
System: wild type HIV-1
Assay: Spread assay: inhibition of acute HIV-1 infection of T-lymphoid cells (WT)
Format: cell-based
Settings: Human immunodeficiency virus 1, T-lymphoid; wild type HIV-1, 10% FBS; read-out: Spread (WT) CIC95 (10% FBS)
All answers are understood in nM, so give the number only.

The examples below pair each entry with its known result.
Cc1ccn(CCc2n[nH]c3ncccc23)c(=O)c1Oc1cc(Cl)cc(C#N)c1
248
Cc1ccn(Cc2n[nH]c3ncccc23)c(=O)c1Oc1cc(Cl)cc(C#N)c1
7
N#Cc1cc(Cl)cc(Oc2c(Cl)c(Cl)cn(Cc3n[nH]c4ncccc34)c2=O)c1
5

QUERY: Recorded IC95 for `NS(=O)(=O)c1ccc(NC(=O)Cn2ccc(C(F)(F)F)c(Oc3cc(Cl)cc(Br)c3)c2=O)c(Cl)c1` , please?
RESULT: 8

---

Parameter pIC50: see the listing below.
Biological target: HIV reverse transcriptase with the Y181C mutation (Human immunodeficiency virus type 1 group M subtype B, UniProt P04585, Y768C)
Construct: made in house
Assay: ECL assay for inhibition of mutant HIV reverse transcriptase (Y181C)
Type: biochemical, HIV-1
Conditions: Y181C mutant RT; read-out: ECL Assay (Y181C) IC50
Reminder that pIC50 means the negative base-10 logarithm of the concentration expressed in mol/L.

CN(Cc1ccccc1Cl)C(=O)Cn1ccc(C(F)(F)F)c(Oc2cc(Cl)cc(C#N)c2)c1=O [Compound 14]
6.54
Cc1nc(OCc2n[nH]c3ncccc23)c(Cl)c(Oc2cc(Cl)cc(C#N)c2)c1Cl [Compound 7-1]
8.46
Cc1ccn(CCc2n[nH]c3ncccc23)c(=O)c1Oc1cc(Cl)cc(C#N)c1 [Compound 12-7]
7.29

QUERY: What does the record list as pIC50 for N#Cc1cc(Cl)cc(Oc2c(F)c(NCc3n[nH]c4ncccc34)nc(F)c2Cl)c1 [Compound 10-4] ?
RESULT: 9.22

QUERY: I have this molecule here, Cc1ccn(Cc2n[nH]c3ncccc23)c(=O)c1Oc1cc(Cl)cc(C#N)c1 [Compound 11-7] , and I need its recorded pIC50.
RESULT: 8.49

QUERY: I'd like to know its pIC50. The molecule in question is NS(=O)(=O)c1ccc(NC(=O)Cn2ccc(C(F)(F)F)c(Oc3cc(Cl)cc(Br)c3)c2=O)c(Cl)c1 [Compound 16]
RESULT: 8.59

QUERY: Report pIC50 for N#Cc1cc(Cl)cc(Oc2c(Cl)c(CCc3n[nH]c4ncccc34)[nH]c(=O)c2Cl)c1 [Compound 5-6] please.
RESULT: 8.80

QUERY: // lookup pIC50 for N#Cc1cc(Cl)cc(Oc2cc(Cn3c(=O)[nH]c4ccccc43)[nH]c(=O)c2Cl)c1 [Compound 9-8]
RESULT: 8.20

---

Reported Cytotoxicity: no cytotoxicity at concentrations up to values follow for various compounds
Tested on: T-lymphoid cells
Type: cell-based
Description: Cytotoxicity was determined by microscopic examination of the cells in each well in the spread assay, wherein a trained analyst observed each culture for any of the following morphological changes as compared to the control cultures: pH imbalance, cell abnormality, cytostatic, cytopathic, or crystallization (i.e., the compound is not soluble or forms crystals in the well). […]

As a guide, the following entries are already answered.
Cc1ccn(CCc2n[nH]c3ncccc23)c(=O)c1Oc1cc(Cl)cc(C#N)c1
> 833 nM
Cc1ccn(Cc2n[nH]c3ncccc23)c(=O)c1Oc1cc(Cl)cc(C#N)c1
> 833 nM
N#Cc1cc(Cl)cc(Oc2cc(Cc3n[nH]c4ncccc34)[nH]c(=O)c2Cl)c1
> 833 nM
O=c1c(Oc2cc(Cl)cc(Cl)c2)c(C(F)(F)F)ccn1Cc1n[nH]c2ncccc12
> 833 nM
NS(=O)(=O)c1ccc(NC(=O)Cn2ccc(C(F)(F)F)c(Oc3cc(Cl)cc(Br)c3)c2=O)c(Cl)c1
> 833 nM
N#Cc1cc(Cl)cc(Oc2c(Cl)c(Cl)cn(Cc3n[nH]c4ncccc34)c2=O)c1
> 833 nM

QUERY: Cytotoxicity: no cytotoxicity at concentrations up to for `N#Cc1cc(C#N)cc(Oc2c(C(F)(F)F)ccn(Cc3n[nH]c4ncccc34)c2=O)c1` ?
RESULT: > 833 nM

QUERY: State the recorded Cytotoxicity: no cytotoxicity at concentrations up to for this entry: `N#Cc1cc(Cl)cc(Oc2c(Cl)ccn(Cc3n[nH]c4nc(N)ccc34)c2=O)c1.O=C(O)C(F)(F)F`
RESULT: > 833 nM

---

Biological target: HIV-1 RT enzyme (wild-type) (Human immunodeficiency virus type 1 group M subtype B)
Assay: ECL assay for inhibition of HIV reverse transcriptase (WT)
Format: biochemical
Conditions: wild-type HIV-1 RT; read-out: ECL Assay (WT) IC50
pIC50 values by entry
Reminder that pIC50 is minus the log10 of a molar concentration.

Record excerpt, results attached:
N#Cc1cc(Cl)cc(Oc2cc(Cc3n[nH]c4ncccc34)[nH]c(=O)c2Cl)c1
9.05
NS(=O)(=O)c1ccc(NC(=O)Cn2ccc(C(F)(F)F)c(Oc3cc(Cl)cc(Br)c3)c2=O)c(Cl)c1
8.72

--- query ---
QUERY: Need pIC50, item `Cc1nc(OCc2n[nH]c3ncccc23)c(Cl)c(Oc2cc(Cl)cc(C#N)c2)c1Cl`
RESULT: 8.89

---

Test system: wild type HIV-1
Assay: Spread assay: inhibition of acute HIV-1 infection of T-lymphoid cells (WT)
Assay type: cell-based
Conditions: Human immunodeficiency virus 1, T-lymphoid; wild type HIV-1, 10% FBS; read-out: Spread (WT) CIC95 (10% FBS)
Measured Property: IC95 (µM)
The reply should contain only the number, in µM.

Worked examples follow.
CN(Cc1ccccc1Cl)C(=O)Cn1ccc(C(F)(F)F)c(Oc2cc(Cl)cc(C#N)c2)c1=O [Compound 14]
0.33
N#Cc1cc(Cl)cc(Oc2c(C(F)(F)F)ccn(CC(=O)Nc3ccc(S(N)(=O)=O)cc3Cl)c2=O)c1 [Compound 15]
0.01
N#Cc1cc(Cl)cc(Oc2cc(CCc3n[nH]c4ncccc34)ncc2Cl)c1 [Compound 6-5]
0.103
N#Cc1cc(Cl)cc(Oc2cc(CCc3n[nH]c4ncccc34)[nH]c(=O)c2)c1 [Compound 3-9]
0.055
N#Cc1cc(Cl)cc(Oc2c(Cl)c(CCc3n[nH]c4ncccc34)[nH]c(=O)c2Cl)c1 [Compound 5-6]
0.042

QUERY: So what's the measured IC95 for this one? N#Cc1cc(Cl)cc(Oc2c(C(F)(F)F)ccn(Cc3n[nH]c4ncccc34)c2=O)c1 [Compound 13-2]
RESULT: 0.004

---

Recorded pIC50 for the following compounds
Biological target: HIV reverse transcriptase with the K103N mutation (Human immunodeficiency virus type 1 group M subtype B, UniProt P04585, K690N)
Construct: made in house
Test: ECL assay for inhibition of mutant HIV reverse transcriptase (K103N)
Type: biochemical, HIV-1
Counter-ions that a name gives are not always drawn.
Give only the number. pIC50 is defined as minus log10 of concentration in molar units.

N#Cc1cc(Cl)cc(Oc2c(Cl)ccn(Cc3n[nH]c4nc(N)ccc34)c2=O)c1.O=C(O)C(F)(F)F [Compound 22, trifluoroacetate]
8.68

QUERY: Query (compound): `Cl.Nc1ccc2c(Cn3ccc(C(F)(F)F)c(Oc4cc(Cl)cc(Cl)c4)c3=O)n[nH]c2n1` ; field requested: pIC50
RESULT: 8.23

QUERY: May I ask what pIC50 has been recorded for N#Cc1cc(Cl)cc(Oc2cc(C(O)c3n[nH]c4ncccc34)[nH]c(=O)c2Cl)c1 (stereo not shown) ?
RESULT: 7.89

QUERY: Item N#Cc1cc(Cl)cc(Oc2c(C(F)(F)F)ccn(Cc3n[nH]c4nc(N)ccc34)c2=O)c1 [Compound 17-2, trifluoroacetate] has what recorded pIC50?
RESULT: 8.51

---

Here, each record is paired with measured IC50 data.
Molecular target: HIV reverse transcriptase with the Y181C mutation (Human immunodeficiency virus type 1 group M subtype B, UniProt P04585, Y768C)
Construct: made in house
Assay: ECL assay for inhibition of mutant HIV reverse transcriptase (Y181C)
Type: biochemical, HIV-1
Structures can show the parent of a compound that is named as a salt.
# value in nM; strip the unit string

Example entries begin here.
N#Cc1cc(Cl)cc(Oc2c(C(F)(F)F)ccn(Cc3n[nH]c4nc(N)ccc34)c2=O)c1 [Compound 17-2, trifluoroacetate]
2.4
N#Cc1cc(Cl)cc(Oc2cc(C(O)c3n[nH]c4ncccc34)[nH]c(=O)c2Cl)c1 (stereo not shown)
4.7
N#Cc1cc(Cl)cc(Oc2c(Cl)ccn(Cc3n[nH]c4nc(N)ccc34)c2=O)c1.O=C(O)C(F)(F)F [Compound 22, trifluoroacetate]
1.8

Attention now turns to another entry.
QUERY: Please look up its IC50: `Cl.Nc1ccc2c(Cn3ccc(C(F)(F)F)c(Oc4cc(Cl)cc(Cl)c4)c3=O)n[nH]c2n1`
RESULT: 1.6
